- Measurement target: BAP1 (UniProt Q92560)
- Sequence (Q92560 whole entry, the tested form may be a part): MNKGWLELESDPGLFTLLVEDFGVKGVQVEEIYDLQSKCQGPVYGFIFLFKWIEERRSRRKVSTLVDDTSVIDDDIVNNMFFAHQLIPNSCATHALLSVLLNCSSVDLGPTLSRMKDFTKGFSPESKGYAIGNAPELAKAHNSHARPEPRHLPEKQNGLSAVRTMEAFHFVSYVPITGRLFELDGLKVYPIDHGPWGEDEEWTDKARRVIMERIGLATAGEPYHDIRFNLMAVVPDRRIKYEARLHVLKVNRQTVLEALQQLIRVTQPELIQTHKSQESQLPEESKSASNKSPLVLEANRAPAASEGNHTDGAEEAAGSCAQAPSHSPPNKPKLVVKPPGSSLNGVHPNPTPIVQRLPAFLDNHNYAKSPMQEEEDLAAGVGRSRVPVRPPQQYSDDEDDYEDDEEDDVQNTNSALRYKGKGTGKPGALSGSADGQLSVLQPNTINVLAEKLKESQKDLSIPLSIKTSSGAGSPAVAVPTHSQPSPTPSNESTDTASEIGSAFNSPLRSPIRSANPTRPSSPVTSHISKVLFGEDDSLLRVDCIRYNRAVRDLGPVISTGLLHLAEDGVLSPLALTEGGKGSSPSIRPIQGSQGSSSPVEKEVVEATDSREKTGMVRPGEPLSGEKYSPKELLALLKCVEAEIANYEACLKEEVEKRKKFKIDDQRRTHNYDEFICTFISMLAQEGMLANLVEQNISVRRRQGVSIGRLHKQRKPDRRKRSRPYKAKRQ
- Assay comment: log2 ratio of Biotin-Ahx-Ub-VS probe labelling (fragment/DMSO); higher = less target engagement (more negative = stronger competition), active = hit call of the paper (q ≤ 0.05, log2 ratio ≤ -1)
- Settings: compound concentration: 200 uM; treatment time: 3 h
Everything with log2 ratio of Biotin-Ahx-Ub-VS probe labelling lower than -1 is false; everything else, including exactly -1, is true.

chemical_structure=Cc1cc(Cl)ccc1NC(=O)CCl category=false
chemical_structure=Cc1c(NC(=O)CCl)c(=O)n(-c2ccccc2)n1C category=false
chemical_structure=Cc1cccc(N(CCC#N)C(=O)CCl)c1C category=true
chemical_structure=Cc1ccc(CN(C)C(=O)CCl)o1 category=true
chemical_structure=Cc1ncsc1CCNC(=O)CCl category=true
chemical_structure=N#Cc1ccc(CNC(=O)CCl)cc1 category=false
chemical_structure=O=C(CCl)Nc1cccc(C(=O)N2CCSCC2)c1 category=false

---

- Measurement target: USP47 (UniProt Q96K76)
- Sequence (Q96K76 whole entry, the tested form may be a part): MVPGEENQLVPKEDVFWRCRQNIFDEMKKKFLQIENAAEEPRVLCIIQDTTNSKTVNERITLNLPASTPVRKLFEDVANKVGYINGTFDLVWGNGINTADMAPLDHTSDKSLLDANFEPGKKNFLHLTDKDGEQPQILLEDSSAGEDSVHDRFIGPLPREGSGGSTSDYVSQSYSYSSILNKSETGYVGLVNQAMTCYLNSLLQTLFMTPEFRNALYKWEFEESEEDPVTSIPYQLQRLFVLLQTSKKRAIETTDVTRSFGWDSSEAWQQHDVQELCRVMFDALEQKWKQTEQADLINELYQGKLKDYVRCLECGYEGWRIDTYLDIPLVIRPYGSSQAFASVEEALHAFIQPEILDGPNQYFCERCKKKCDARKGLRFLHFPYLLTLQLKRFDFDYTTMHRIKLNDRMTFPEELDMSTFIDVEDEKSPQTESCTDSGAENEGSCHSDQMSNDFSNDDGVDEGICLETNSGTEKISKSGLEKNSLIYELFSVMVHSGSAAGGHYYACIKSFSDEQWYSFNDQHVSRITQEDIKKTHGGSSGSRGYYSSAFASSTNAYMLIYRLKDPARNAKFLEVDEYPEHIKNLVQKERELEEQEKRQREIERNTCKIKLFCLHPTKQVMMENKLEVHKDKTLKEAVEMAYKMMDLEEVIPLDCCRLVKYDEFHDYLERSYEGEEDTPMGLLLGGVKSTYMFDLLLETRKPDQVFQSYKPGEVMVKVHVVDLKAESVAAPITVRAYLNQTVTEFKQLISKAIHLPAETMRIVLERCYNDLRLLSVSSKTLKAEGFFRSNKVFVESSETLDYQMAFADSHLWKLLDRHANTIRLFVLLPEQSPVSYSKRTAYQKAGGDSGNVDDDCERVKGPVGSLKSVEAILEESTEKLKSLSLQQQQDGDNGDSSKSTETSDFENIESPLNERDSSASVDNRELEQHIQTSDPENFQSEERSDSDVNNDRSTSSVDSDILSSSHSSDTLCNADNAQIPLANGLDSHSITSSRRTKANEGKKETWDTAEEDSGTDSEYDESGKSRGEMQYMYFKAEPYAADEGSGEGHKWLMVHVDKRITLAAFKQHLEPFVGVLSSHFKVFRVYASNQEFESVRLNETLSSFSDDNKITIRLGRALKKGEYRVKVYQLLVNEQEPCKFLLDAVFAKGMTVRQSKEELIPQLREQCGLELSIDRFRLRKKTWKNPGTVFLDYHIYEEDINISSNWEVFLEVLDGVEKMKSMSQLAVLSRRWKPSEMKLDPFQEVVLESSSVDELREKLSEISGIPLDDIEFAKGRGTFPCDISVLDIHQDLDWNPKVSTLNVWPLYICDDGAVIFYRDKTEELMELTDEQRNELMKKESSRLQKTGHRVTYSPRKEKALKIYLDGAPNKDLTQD
- Assay comment: log2 ratio of Biotin-Ahx-Ub-VS probe labelling (fragment/DMSO); higher = less target engagement (more negative = stronger competition), active = hit call of the paper (q ≤ 0.05, log2 ratio ≤ -1)
- Settings: compound concentration: 200 uM; treatment time: 3 h
Label Condition not met if log2 ratio of Biotin-Ahx-Ub-VS probe labelling falls below -0.4; label Condition met in every other case.

compound=Cc1ncsc1CCNC(=O)CCl measurement_target="USP47 (UniProt Q96K76)" category="Condition met"
compound=Cl.Cn1c(CNC(=O)CCl)nc2cccnc21 measurement_target="USP47 (UniProt Q96K76)" category="Condition met"
compound=CN(C)C(=O)c1ccc(NC(=O)CCl)cc1 measurement_target="USP47 (UniProt Q96K76)" category="Condition met"
compound=O=C(CCl)Nc1nc(-c2cccs2)cs1 measurement_target="USP47 (UniProt Q96K76)" category="Condition not met"
compound="CCN(C(=O)CCl)C1CCS(=O)(=O)C1 (configuration not stated)" measurement_target="USP47 (UniProt Q96K76)" category="Condition met"
compound="Cl.Cn1nccc1C(NC(=O)CCl)c1ccccc1 (configuration not stated)" measurement_target="USP47 (UniProt Q96K76)" category="Condition not met"
compound=Cl.O=C(CN1CCN(C(=O)CCl)CC1)Nc1ccc(F)cc1 measurement_target="USP47 (UniProt Q96K76)" category="Condition met"
compound="O=C(CCl)N1CCCC2CCCCC21 (configuration not stated)" measurement_target="USP47 (UniProt Q96K76)" category="Condition not met"
compound=O=C(CCl)Nc1ccc(Cl)c(F)c1 measurement_target="USP47 (UniProt Q96K76)" category="Condition not met"
compound=O=C(CCl)Nc1ccc(F)cc1F measurement_target="USP47 (UniProt Q96K76)" category="Condition met"
compound=O=C(CCl)NCc1cccc(N2CCCC2=O)c1 measurement_target="USP47 (UniProt Q96K76)" category="Condition met"
compound="Cc1cccc(N2CCC(NC(=O)CCl)C2=O)c1 (configuration not stated)" measurement_target="USP47 (UniProt Q96K76)" category="Condition met"
compound=Cn1cc(CN(Cc2ccc(Cl)cc2)C(=O)CCl)cn1 measurement_target="USP47 (UniProt Q96K76)" category="Condition not met"
compound=CCN(C(=O)CCl)C1CCCCC1 measurement_target="USP47 (UniProt Q96K76)" category="Condition met"
compound=Cc1ccc(-c2nnc(C)[nH]2)c(NC(=O)CCl)c1 measurement_target="USP47 (UniProt Q96K76)" category="Condition met"
compound=O=C(CCl)NCc1noc(C2CC2)n1 measurement_target="USP47 (UniProt Q96K76)" category="Condition met"
compound="O=C(CCl)N1CCN2C(=O)CCC2C1 (configuration not stated)" measurement_target="USP47 (UniProt Q96K76)" category="Condition met"
compound=Cc1cc(NC(=O)CCl)n(-c2ccccc2)n1 measurement_target="USP47 (UniProt Q96K76)" category="Condition not met"
compound=O=C(CCl)N1CCN(C(=O)N2CCCCC2)CC1 measurement_target="USP47 (UniProt Q96K76)" category="Condition not met"
compound="CCC1c2ccsc2CCN1C(=O)CCl (configuration not stated)" measurement_target="USP47 (UniProt Q96K76)" category="Condition not met"
compound=O=C(CCl)NC1CCC2(CC1)OCCO2 measurement_target="USP47 (UniProt Q96K76)" category="Condition met"
compound=N#Cc1ccc(Cl)cc1NC(=O)CCl measurement_target="USP47 (UniProt Q96K76)" category="Condition not met"
compound=Cc1ccccc1C1(CNC(=O)CCl)CCOCC1 measurement_target="USP47 (UniProt Q96K76)" category="Condition not met"
compound=O=C(CCl)N1CCOC2(CCC2)CC1 measurement_target="USP47 (UniProt Q96K76)" category="Condition not met"
